# target entity: α4β2* nAChR (native) (Rattus norvegicus, UniProt P09483+P12390)
# assay name: [3H]epibatidine binding competition, rat forebrain membranes
measurement kind: Ki (nM)
The figure you give is taken to be in nM; do not add the unit.

| compound | target entity | units text | test result |
| --- | --- | --- | --- |
| Cl.OCCCc1cc(-c2cncc(OC[C@@H]3CCN3)c2)on1 [Compound 3] | α4β2* nAChR (native) (Rattus norvegicus, UniProt P09483+P12390) | nM | 1.9 |

Proceeding to the next compound to report its Ki.
**Query** Which Ki value belongs to Cl.OCc1cc(-c2cncc(OC[C@@H]3CCN3)c2)on1 [Compound 4] ?
**Result** 0.61
